Target: T1, human CD98, endogenously expressed on Molt-4 human acute lymphoblastic leukemia cells (human)
T1 chain: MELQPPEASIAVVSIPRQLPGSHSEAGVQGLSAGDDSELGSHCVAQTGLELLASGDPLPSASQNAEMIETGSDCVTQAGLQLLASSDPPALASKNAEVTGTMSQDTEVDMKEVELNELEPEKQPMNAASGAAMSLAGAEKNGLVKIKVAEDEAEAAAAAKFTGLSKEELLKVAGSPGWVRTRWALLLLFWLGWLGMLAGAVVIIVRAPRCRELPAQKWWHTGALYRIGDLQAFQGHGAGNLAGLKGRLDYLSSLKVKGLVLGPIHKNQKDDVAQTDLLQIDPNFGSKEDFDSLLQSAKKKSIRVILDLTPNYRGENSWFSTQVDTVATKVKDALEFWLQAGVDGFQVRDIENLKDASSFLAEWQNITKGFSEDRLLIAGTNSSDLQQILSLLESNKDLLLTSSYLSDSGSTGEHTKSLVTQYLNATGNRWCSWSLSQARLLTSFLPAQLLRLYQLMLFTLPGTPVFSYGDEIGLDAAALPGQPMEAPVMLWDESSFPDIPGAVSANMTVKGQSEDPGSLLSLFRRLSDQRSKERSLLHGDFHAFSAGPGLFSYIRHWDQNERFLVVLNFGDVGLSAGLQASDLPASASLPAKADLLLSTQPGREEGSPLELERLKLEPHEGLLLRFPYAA
Assay: cell-based or functional assay
measurement label: Molt4 IC50 (nM)
Reply with just the number (in nM).

INSERT INTO results (binder, measurement_unit, numeric_value) VALUES
  ('CD98 (CL-huAb110)-AAA (antibody, human IgG1, kappa, L234A L235A, V domains shown, synthon AAA on reduced interchain cysteines (sites not given)) VH: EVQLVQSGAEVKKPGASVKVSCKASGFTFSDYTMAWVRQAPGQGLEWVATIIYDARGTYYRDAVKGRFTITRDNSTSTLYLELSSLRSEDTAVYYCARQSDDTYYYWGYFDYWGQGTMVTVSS VL: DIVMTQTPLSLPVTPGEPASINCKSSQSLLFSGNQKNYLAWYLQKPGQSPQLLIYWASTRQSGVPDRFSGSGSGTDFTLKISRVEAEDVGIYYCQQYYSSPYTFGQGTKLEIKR', 'nM', 0.16);

Kindly consider the entry below.
Prompt: Given the binder CD98 (CL-huAb110)-YY (antibody, human IgG1, kappa, L234A L235A, V domains shown, synthon YY on reduced interchain cysteines (sites not given)) VH: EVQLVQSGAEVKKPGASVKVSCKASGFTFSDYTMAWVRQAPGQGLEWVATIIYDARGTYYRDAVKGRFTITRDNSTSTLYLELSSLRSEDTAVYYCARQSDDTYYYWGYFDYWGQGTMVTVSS VL: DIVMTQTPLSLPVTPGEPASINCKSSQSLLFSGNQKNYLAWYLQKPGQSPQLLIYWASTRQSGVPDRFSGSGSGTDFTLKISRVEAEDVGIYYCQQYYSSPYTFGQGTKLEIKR , write its reported Molt4 IC50.
Completion: 0.13

Just for reference, patent US20200121803A1 is where these values come from.
